What microsomal CLint at 1 μM was measured for each of the following?
test: Microsome stability assay; type: in vitro ADME, human; settings: human, pooled human liver microsomes, pH 7.4; liver microsomes; read-out: rate of intrinsic clearance
Just the number please, in µL/min/mg, no unit attached.

So for CCS(=O)(=O)N[C@@H]1C[C@@]2(C)O[C@]1(C)[C@@H]1C(=O)N(c3ccc(C#N)c(C(F)(F)F)c3)C(=O)[C@@H]12 [BMS-641988, reference compound] , the logged microsomal CLint at 1 μM turned out to be 10.1

In plain terms, CC(O)c1cc(C(=O)N[C@@H]2C[C@@]3(C)O[C@]2(C)[C@@H]2C(=O)N(c4ccc(C#N)c(C(F)(F)F)c4F)C(=O)[C@@H]23)n[nH]1 (stereo partly drawn) has a documented microsomal CLint at 1 μM of 10.3

microsomal CLint at 1 μM in this record for C[C@]12O[C@](C)(C[C@H]1NC(=O)c1cc[nH]n1)[C@H]1C(=O)N(c3ccc(C#N)c(C(F)(F)F)c3)C(=O)[C@H]12 : 15.3

----------
system: VCaP cells; test: VCaP viability assay (CellTiter-Glo); assay type: cell-based; settings: Homo sapiens, VCaP
Please provide measured pIC50 for the entries that follow.
Scale note: pIC50 = -log10(concentration in M).

For the compound C[C@]12O[C@](C)(C[C@H]1NC(=O)c1c[nH]c3ccccc13)[C@H]1C(=O)N(c3ccc(C#N)c(C(F)(F)F)c3)C(=O)[C@H]12 [(R)-1720] , the measured pIC50 on VCaP cells was 6.80

pIC50 on VCaP cells for CC(O)c1cc(C(=O)N[C@@H]2C[C@@]3(C)O[C@]2(C)[C@@H]2C(=O)N(c4ccc(C#N)c(C(F)(F)F)c4F)C(=O)[C@@H]23)n[nH]1 (stereo partly drawn) is 6.39

Tested on VCaP cells: C[C@]12O[C@](C)(C[C@H]1NC(=O)c1cc[nH]n1)[C@H]1C(=O)N(c3ccc(C#N)c(C(F)(F)F)c3)C(=O)[C@H]12 . Observed pIC50: 6.27

----------
target: AR (Rattus norvegicus, UniProt P15207); construct: purchased Thermo Fisher Scientific; test: AR binding, PolarScreen AR Competitor Assay (fluorescence polarization)
Sequence (P15207 646-902 limits assumed): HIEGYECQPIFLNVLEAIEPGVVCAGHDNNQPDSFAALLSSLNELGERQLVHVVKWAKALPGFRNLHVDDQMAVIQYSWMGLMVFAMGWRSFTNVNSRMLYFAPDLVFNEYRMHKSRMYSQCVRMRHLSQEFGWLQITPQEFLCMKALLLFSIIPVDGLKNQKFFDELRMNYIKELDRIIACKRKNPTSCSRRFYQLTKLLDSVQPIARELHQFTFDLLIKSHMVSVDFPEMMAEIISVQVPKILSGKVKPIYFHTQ
value-type: binding to AR in vitro, in words

1. C[C@]12O[C@](C)(C[C@H]1NC(=O)c1n[nH]c3ccccc13)[C@H]1C(=O)N(c3ccc(C#N)c(C(F)(F)F)c3)C(=O)[C@H]12 = appeared to accommodate
2. C[C@]12O[C@](C)(C[C@H]1NC(=O)c1cc(-c3cccs3)[nH]n1)[C@H]1C(=O)N(c3ccc(C#N)c(C(F)(F)F)c3)C(=O)[C@H]12 = appeared to accommodate
3. C[C@]12O[C@](C)(C[C@H]1n1cc(CCO)nn1)[C@H]1C(=O)N(c3ccc(C#N)c(C(F)(F)F)c3)C(=O)[C@H]12 = did not bind to AR
4. CCS(=O)(=O)Nc1ccc2c(c1)C(=O)N(c1ccc(C#N)c(C(F)(F)F)c1)C2=O = did not bind to AR

Per the records, this molecule ( C[C@]12O[C@](C)(C[C@H]1NC(=O)c1cc(-c3ccco3)[nH]n1)[C@H]1C(=O)N(c3ccc(C#N)c(C(F)(F)F)c3)C(=O)[C@H]12 ) has binding to AR in vitro, in words equal to appeared to accommodate

----------
target: AR T878A (Homo sapiens, UniProt P10275, T878A); construct: LNCaP cells expressing AR T878A; endogenous in cells; assay: cell-based
Sequence (P10275 whole entry T878A): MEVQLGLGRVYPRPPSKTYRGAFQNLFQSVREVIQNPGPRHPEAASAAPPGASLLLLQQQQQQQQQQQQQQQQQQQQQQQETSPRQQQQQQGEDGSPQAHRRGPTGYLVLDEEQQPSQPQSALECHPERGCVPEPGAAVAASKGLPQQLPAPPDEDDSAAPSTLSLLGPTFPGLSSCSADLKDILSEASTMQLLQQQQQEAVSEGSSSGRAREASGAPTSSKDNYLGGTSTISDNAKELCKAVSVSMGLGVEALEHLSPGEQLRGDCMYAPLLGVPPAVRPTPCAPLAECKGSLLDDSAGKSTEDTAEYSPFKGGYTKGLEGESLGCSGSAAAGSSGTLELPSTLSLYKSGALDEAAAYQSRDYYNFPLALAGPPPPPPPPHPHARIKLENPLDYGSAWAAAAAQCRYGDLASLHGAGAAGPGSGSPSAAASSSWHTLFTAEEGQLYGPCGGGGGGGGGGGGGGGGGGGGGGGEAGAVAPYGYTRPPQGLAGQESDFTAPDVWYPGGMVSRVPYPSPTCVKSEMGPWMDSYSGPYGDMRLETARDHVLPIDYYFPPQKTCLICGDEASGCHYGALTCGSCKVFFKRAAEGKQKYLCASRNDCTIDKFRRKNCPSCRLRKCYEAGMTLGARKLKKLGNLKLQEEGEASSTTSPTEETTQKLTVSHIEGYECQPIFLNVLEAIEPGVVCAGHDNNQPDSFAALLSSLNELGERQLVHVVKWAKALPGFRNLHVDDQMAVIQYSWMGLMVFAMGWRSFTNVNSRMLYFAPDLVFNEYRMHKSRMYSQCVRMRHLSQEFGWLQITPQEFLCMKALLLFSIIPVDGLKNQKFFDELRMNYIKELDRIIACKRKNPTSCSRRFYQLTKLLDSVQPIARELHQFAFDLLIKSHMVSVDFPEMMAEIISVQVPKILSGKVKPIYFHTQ
Could you mark each record label 1 if its EC50 falls strictly under 900 nM, and label 0 if it equals or exceeds it?

Determine if CC(=O)c1cc(C(=O)N[C@@H]2C[C@@]3(C)O[C@]2(C)[C@@H]2C(=O)N(c4ccc(C#N)c(C(F)(F)F)c4)C(=O)[C@@H]23)n[nH]1 shows EC50 strictly lower than 900 nM.
label 0

hey, is EC50 for C[C@]12O[C@](C)(C[C@H]1NC(=O)c1cc(-c3cccs3)[nH]n1)[C@H]1C(=O)N(c3ccc(C#N)c(C(F)(F)F)c3)C(=O)[C@H]12 lower than 900 nM or not?
label 0

Find out if reported EC50 for CCS(=O)(=O)N[C@@H]1C[C@@]2(C)O[C@]1(C)[C@@H]1C(=O)N(c3ccc(C#N)c(C(F)(F)F)c3)C(=O)[C@@H]12 [BMS-641988, reference compound] is less than 900 nM
label 1

Does C[C@]12O[C@](C)(C[C@H]1NC(=O)c1n[nH]c3ccccc13)[C@H]1C(=O)N(c3ccc(C#N)c(C(F)(F)F)c3)C(=O)[C@H]12 have EC50 strictly under 900 nM?
label 1

Take the compound C[C@]12O[C@](C)(C[C@H]1NC(=O)c1cc(-c3ccco3)[nH]n1)[C@H]1C(=O)N(c3ccc(C#N)c(C(F)(F)F)c3)C(=O)[C@H]12 and say whether its EC50 is less than 900 nM.
label 1

Criterion: EC50 strictly below 900 nM. Is it met by Cc1c(N2C(=O)[C@@H]3[C@H](C2=O)[C@@]2(C)C[C@@H](NC(=O)c4cc(C(C)O)[nH]n4)[C@]3(C)O2)ccc(C#N)c1C(F)(F)F (stereo partly drawn) ?
label 0

hey, is EC50 for C[C@]12O[C@](C)(C[C@H]1NC(=O)c1cc[nH]n1)[C@H]1C(=O)N(c3ccc(C#N)c(C(F)(F)F)c3)C(=O)[C@H]12 lower than 900 nM or not?
label 1

Determine if CC(O)c1cc(C(=O)N[C@@H]2C[C@@]3(C)O[C@]2(C)[C@@H]2C(=O)N(c4ccc(C#N)c(C(F)(F)F)c4F)C(=O)[C@@H]23)n[nH]1 (stereo partly drawn) shows EC50 strictly lower than 900 nM.
label 0

For CC(O)c1cc(C(=O)N[C@@H]2C[C@@]3(C)O[C@]2(C)[C@@H]2C(=O)N(c4ccc(C#N)c(C(F)(F)F)c4)C(=O)[C@@H]23)n[nH]1 (stereo partly drawn) , is the recorded EC50 below the cut-off of 900 nM?
label 0

----------
molecular target: AR T878A (Homo sapiens, UniProt P10275, T878A); construct: LNCaP cells expressing AR T878A; endogenous in cells; host or cells: LNCaP-luc (LNCaP stably carrying the Cignal Lenti AR Reporter); experiment: cell-based; type: cell-based
value-type: AR agonism / antagonism in LNCaP ARE-luciferase, in words

1) Cc1c(N2C(=O)[C@@H]3[C@H](C2=O)[C@@]2(C)C[C@@H](NC(=O)c4cc(C(C)O)[nH]n4)[C@]3(C)O2)ccc(C#N)c1C(F)(F)F (stereo partly drawn) [EITM-1712] = pure antagonists
2) CC(O)c1cc(C(=O)N[C@@H]2C[C@@]3(C)O[C@]2(C)[C@@H]2C(=O)N(c4ccc(C#N)c(C(F)(F)F)c4F)C(=O)[C@@H]23)n[nH]1 (stereo partly drawn) [EITM-1707] = pure antagonists

----------
target: AR T878A (Homo sapiens, UniProt P10275, T878A); construct: LNCaP cells expressing AR T878A; endogenous in cells; host or cells: LNCaP-luc (LNCaP stably carrying the Cignal Lenti AR Reporter); assay: cell-based; type: cell-based; conditions: LNCaP
Define the label as yes when Emax is strictly less than 10% and as no in all remaining cases.

Just wondering, is Emax of CC(O)c1cc(C(=O)N[C@@H]2C[C@@]3(C)O[C@]2(C)[C@@H]2C(=O)N(c4ccc(C#N)c(C(F)(F)F)c4)C(=O)[C@@H]23)n[nH]1 (some centres unmarked) [EITM-1704] below 10%?
no

hey, is Emax for Cc1c(N2C(=O)[C@@H]3[C@H](C2=O)[C@@]2(C)C[C@@H](NC(=O)c4cc(C(C)O)[nH]n4)[C@]3(C)O2)ccc(C#N)c1C(F)(F)F (some centres unmarked) [EITM-1712] lower than 10% or not?
no

Would you kindly verify if Emax of C[C@]12O[C@](C)(C[C@H]1NC(=O)c1cc(-c3cccs3)[nH]n1)[C@H]1C(=O)N(c3ccc(C#N)c(C(F)(F)F)c3)C(=O)[C@H]12 [EITM-1710] is strictly less than 10%?
yes

Record CC(=O)c1cc(C(=O)N[C@@H]2C[C@@]3(C)O[C@]2(C)[C@@H]2C(=O)N(c4ccc(C#N)c(C(F)(F)F)c4)C(=O)[C@@H]23)n[nH]1 [EITM-1703] : is its Emax strictly below 10%?
no

For this molecule, is Emax lower than 10%? CC(O)c1cc(C(=O)N[C@@H]2C[C@@]3(C)O[C@]2(C)[C@@H]2C(=O)N(c4ccc(C#N)c(C(F)(F)F)c4F)C(=O)[C@@H]23)n[nH]1 (some centres unmarked) [EITM-1707]
no

For C[C@]12O[C@](C)(C[C@H]1NC(=O)c1cc[nH]n1)[C@H]1C(=O)N(c3ccc(C#N)c(C(F)(F)F)c3)C(=O)[C@H]12 [EITM-1702] , is the recorded Emax below the cut-off of 10%?
yes

Is Emax of C[C@]12O[C@](C)(C[C@H]1NC(=O)c1n[nH]c3ccccc13)[C@H]1C(=O)N(c3ccc(C#N)c(C(F)(F)F)c3)C(=O)[C@H]12 [EITM-1709] strictly below 10%?
yes

Below 10% on Emax? Entry C[C@]12O[C@](C)(C[C@H]1NC(=O)c1cc(-c3ccco3)[nH]n1)[C@H]1C(=O)N(c3ccc(C#N)c(C(F)(F)F)c3)C(=O)[C@H]12 [EITM-1711]
yes
